Test: Cmax in Balb/c mouse at 10 mg/kg, po measured upto 24 hrs by LC-MS/MS analysis
Assay type: ADME, organism-based
Conditions: in vivo
Measurement Type: Cmax (ng/mL)
The answer is to be given in ng/mL; state only the numeric part.

Query :: Can you share its Cmax? I mean this compound: COc1cc(C(=O)NC[C@](O)(c2cc(C(C)(C)O)c(F)c(-c3ccc(F)cc3)n2)C(F)(F)F)cc2cc(C)nnc12
Result :: 1730

* * *

Test: AUC (0 to last) in Beagle dog at 0.5 mg/kg, po measured upto 24 hrs by LC-MS/MS analysis
Assay type: ADME, organism-based, Canis lupus familiaris
Details: in vivo
Measurement Type: AUC(0-t) at 24 h (µg·h/mL)
The answer is to be given in µg·h/mL; state only the numeric part.

Query :: Can you share its AUC(0-t) at 24 h? I mean this compound: COc1cc(C(=O)NC[C@](O)(c2cc(C(C)(C)O)c(F)c(-c3ccc(F)cc3)n2)C(F)(F)F)cc2cc(C)nnc12
Result :: 1.2

* * *

Test: Oral bioavailability in Beagle dog at 0.5 mg/kg measured upto 24 hrs by LC-MS/MS analysis
Format: ADME, organism-based, Canis lupus familiaris
Conditions: in vivo
Measurement Type: bioavailability
Write the quantity with the unit trailing the number.

Query :: Can you share its bioavailability? I mean this compound: COc1cc(C(=O)NC[C@](O)(c2cc(C(C)(C)O)c(F)c(-c3ccc(F)cc3)n2)C(F)(F)F)cc2cc(C)nnc12
Result :: 81%

* * *

Assay: Metabolic stability in human hepatocytes assessed as intrinsic clearance per 10^6 cells at 1 uM measured upto 180 mins by LC-MS/MS analysis
Type: ADME, cell-based, Hepatocyte
Conditions: read-out: CLH
Give measured hepatocyte CLint at 1 µM for each item. Keep answers brief.
The answer is to be given in µL/min/1e6 cells; state only the numeric part.

Query :: Can you share its hepatocyte CLint at 1 µM? I mean this compound: COc1cc(C(=O)NC[C@](O)(c2nc(-c3ccc(F)cc3)c(F)c(C(C)(C)O)c2F)C(F)(F)F)cc2cc(C)cnc12
Result :: 9.7

Query :: Can you share its hepatocyte CLint at 1 µM? I mean this compound: COc1cc(C(=O)NC[C@](O)(c2cc3c(c(-c4ccc(F)cc4)n2)OC[C@]3(C)NS(C)(=O)=O)C(F)(F)F)cc2cccnc12
Result :: 3

Query :: Can you share its hepatocyte CLint at 1 µM? I mean this compound: COc1cc(C(=O)NC[C@](O)(c2cc3c(c(-c4ccc(F)cc4)n2)OC[C@]3(C)NS(C)(=O)=O)C(F)(F)F)ccc1OC[C@@H](C)O
Result :: 11

Query :: Can you share its hepatocyte CLint at 1 µM? I mean this compound: CCc1cc2cc(C(=O)NC[C@](O)(c3cc(C(C)(C)O)c(F)c(-c4ccc(F)cc4)n3)C(F)(F)F)cc(OC)c2nn1
Result :: 14

* * *

Assay: Metabolic stability in rat hepatocytes assessed as intrinsic clearance per 10^6 cells at 1 uM measured upto 180 mins by LC-MS/MS analysis
Format: ADME, cell-based, Hepatocyte
Details: read-out: CLH
Give measured hepatocyte CLint at 1 µM for each item. Keep answers brief.
The answer is to be given in µL/min/1e6 cells; state only the numeric part.

Query :: Can you share its hepatocyte CLint at 1 µM? I mean this molecule: COc1cc(C(=O)NC[C@](O)(c2cc(C(C)(C)O)c(F)c(-c3ccc(F)cc3)n2)C(F)(F)F)cc2cc(C)nnc12
Result :: 27

Query :: Can you share its hepatocyte CLint at 1 µM? I mean this molecule: COc1cc(C(=O)NC[C@](O)(c2cc(C(C)(C)O)c(F)c(-c3ccc(F)cc3)n2)C(F)(F)F)cc2cc(C(F)F)nnc12
Result :: 6.9

Query :: Can you share its hepatocyte CLint at 1 µM? I mean this molecule: COc1cc(C(=O)NC[C@](O)(c2cc(C(C)(C)O)c(F)c(-c3ccc(F)cc3)n2)C(F)(F)F)cc2cc(C(F)F)cnc12
Result :: 19

Query :: Can you share its hepatocyte CLint at 1 µM? I mean this molecule: CC(=O)N[C@@]1(C)COc2c1cc([C@@](O)(CNC(=O)c1cc(OC3CC3)c3ncccc3c1)C(F)(F)F)nc2-c1ccc(F)cc1
Result :: 11

* * *

Test: Oral bioavailability in Sprague-Dawley rat at 5 mg/kg measured upto 24 hrs by LC-MS/MS analysis
Type: ADME, organism-based
Settings: in vivo
Measurement Type: bioavailability
Write the quantity with the unit trailing the number.

Query :: Can you share its bioavailability? I mean this compound: COc1cc(C(=O)NC[C@](O)(c2cc(C(C)(C)O)c(F)c(-c3ccc(F)cc3)n2)C(F)(F)F)cc2cc(C)nnc12
Result :: 20%

* * *

Experiment: Oral bioavailability in Balb/c mouse at 10 mg/kg measured upto 24 hrs by LC-MS/MS analysis
Type: ADME, organism-based
Conditions: in vivo
Measurement Type: bioavailability (%)
The answer is to be given in %; state only the numeric part.

Query :: Can you share its bioavailability? I mean this compound: COc1cc(C(=O)NC[C@](O)(c2cc(C(C)(C)O)c(F)c(-c3ccc(F)cc3)n2)C(F)(F)F)cc2cc(C)nnc12
Result :: 61

* * *

Experiment: Inhibition of RSV RNA polymerase assessed as RNA products using […] template by SPA primer extension enzymatic assay
Parameters: species or system Respiratory syncytial virus
Sorting guide: entries reporting IC50 beneath 1 nM go in the Y pile, the rest go in the N pile.

Query :: Quick check: does COc1cc(C(=O)NC[C@](O)(c2cc3c(c(-c4ccc(F)cc4)n2)OC[C@]3(C)NS(C)(=O)=O)C(F)(F)F)ccc1OC[C@@H](C)O have IC50 under 1 nM?
Result :: N

Query :: Quick check: does COc1cc(C(=O)NC[C@](O)(c2cc(C(C)(C)O)c(F)c(-c3ccc(F)cc3)n2)C(F)(F)F)cc2cc(F)nnc12 have IC50 under 1 nM?
Result :: N

Query :: Quick check: does COc1cc(C(=O)NC[C@](O)(c2cc(C(C)(C)O)c(F)c(-c3ccc(F)cc3)n2)C(F)(F)F)cc2cc(OC(F)F)nnc12 have IC50 under 1 nM?
Result :: Y

Query :: Quick check: does CCc1cc2cc(C(=O)NC[C@](O)(c3cc(C(C)(C)O)c(F)c(-c4ccc(F)cc4)n3)C(F)(F)F)cc(OC)c2nn1 have IC50 under 1 nM?
Result :: Y

Query :: Quick check: does COc1cc(C(=O)NC[C@](O)(c2cc(C(C)(C)O)c(F)c(-c3ccc(F)cc3)n2)C(F)(F)F)cc2cc(Cl)nnc12 have IC50 under 1 nM?
Result :: Y

Query :: Quick check: does COc1cc(C(=O)NC[C@](O)(c2cc3c(c(-c4ccc(F)cc4)n2)OC[C@]3(C)NS(C)(=O)=O)C(F)(F)F)cc2cc(C)cnc12 have IC50 under 1 nM?
Result :: Y

Query :: Quick check: does CC(=O)N[C@@]1(C)COc2c1cc([C@@](O)(CNC(=O)c1cc(OC3CC3)c3ncccc3c1)C(F)(F)F)nc2-c1ccc(F)cc1 have IC50 under 1 nM?
Result :: N

* * *

Tested on: Respiratory syncytial virus
Assay: Antiviral activity against Respiratory syncytial virus (RSV) infected in human APC-126 cells assessed as replicon by measuring protein adjusted effective concentration in the presence of 40% human serum measured after 3 days by Renilla Glo assay
Format: functional, organism-based
Conditions: 72 h
pEC50: −log10 of the molar value.
So basically: pEC50 at 7 or higher? That is condition met. Lower than 7? That is condition not met.

Query :: Hello, I need to know if COc1cc(C(=O)NC[C@](O)(c2cc(C(C)(C)O)c(F)c(-c3ccc(F)cc3)n2)C(F)(F)F)cc2cc(C3CC3)cnc12 has measured pEC50 not below 7. Thanks!
Result :: condition not met

Query :: Hello, I need to know if COc1cc(C(=O)NC[C@](O)(c2cc(C(C)(C)O)c(F)c(-c3ccc(F)cc3)n2)C(F)(F)F)cc2cc(C(F)(F)F)cnc12 has measured pEC50 not below 7. Thanks!
Result :: condition not met

Query :: Hello, I need to know if COc1cc(C(=O)NC[C@](O)(c2cc(C(C)(C)O)c(F)c(-c3ccc(F)cc3)n2)C(F)(F)F)cc2cc(OC(F)F)nnc12 has measured pEC50 not below 7. Thanks!
Result :: condition not met

Query :: Hello, I need to know if CCc1cc2cc(C(=O)NC[C@](O)(c3cc(C(C)(C)O)c(F)c(-c4ccc(F)cc4)n3)C(F)(F)F)cc(OC)c2nn1 has measured pEC50 not below 7. Thanks!
Result :: condition met

Query :: Hello, I need to know if COc1cc(C(=O)NC[C@](O)(c2cc(C(C)(C)O)c(F)c(-c3ccc(F)cc3)n2)C(F)(F)F)cc2cc(C)cnc12 has measured pEC50 not below 7. Thanks!
Result :: condition met
